# assayTarget: EGFR (HCC827 cells) (Homo sapiens, UniProt P00533, DEL746-750)
# Construct: endogenous in cells; host or cells: HCC827
# Sequence (P00533 with tags, fused parts or gaps DEL746-750): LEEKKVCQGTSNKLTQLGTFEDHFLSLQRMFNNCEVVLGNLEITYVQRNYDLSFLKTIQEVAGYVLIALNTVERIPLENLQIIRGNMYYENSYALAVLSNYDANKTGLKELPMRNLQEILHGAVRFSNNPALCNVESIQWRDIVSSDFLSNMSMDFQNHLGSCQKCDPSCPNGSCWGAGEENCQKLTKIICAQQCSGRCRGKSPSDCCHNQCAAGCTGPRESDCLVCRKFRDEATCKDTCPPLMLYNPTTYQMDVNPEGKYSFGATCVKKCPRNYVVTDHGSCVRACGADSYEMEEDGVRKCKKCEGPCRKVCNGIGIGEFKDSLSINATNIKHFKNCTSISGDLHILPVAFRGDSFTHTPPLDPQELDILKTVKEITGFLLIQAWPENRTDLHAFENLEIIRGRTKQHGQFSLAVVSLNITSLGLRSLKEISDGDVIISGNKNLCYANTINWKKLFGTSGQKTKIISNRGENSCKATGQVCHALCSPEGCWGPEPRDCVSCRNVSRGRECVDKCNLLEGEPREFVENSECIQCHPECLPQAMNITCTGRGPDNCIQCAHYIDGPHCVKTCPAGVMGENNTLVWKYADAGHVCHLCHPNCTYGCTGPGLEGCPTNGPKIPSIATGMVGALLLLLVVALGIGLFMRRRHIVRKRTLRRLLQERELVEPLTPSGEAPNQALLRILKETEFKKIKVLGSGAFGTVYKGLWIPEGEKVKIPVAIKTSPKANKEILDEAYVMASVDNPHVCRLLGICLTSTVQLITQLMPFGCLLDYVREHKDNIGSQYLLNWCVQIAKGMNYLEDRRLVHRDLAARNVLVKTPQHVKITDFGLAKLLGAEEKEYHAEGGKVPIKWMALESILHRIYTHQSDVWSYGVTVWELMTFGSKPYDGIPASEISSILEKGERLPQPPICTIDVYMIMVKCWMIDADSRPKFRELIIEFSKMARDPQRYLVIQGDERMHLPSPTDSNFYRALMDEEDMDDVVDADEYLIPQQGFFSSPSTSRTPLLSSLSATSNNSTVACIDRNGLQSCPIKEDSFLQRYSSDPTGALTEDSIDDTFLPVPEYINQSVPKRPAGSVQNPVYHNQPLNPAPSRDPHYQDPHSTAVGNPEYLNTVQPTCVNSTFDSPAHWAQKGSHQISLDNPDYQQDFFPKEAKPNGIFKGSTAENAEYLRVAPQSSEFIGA
# testName: EGFR degradation HTRF assay, HCC827 cells
# Assay type: cell-based
# condition: HCC827, 16h treatment, maximum percentage of degradation
readoutName: Dmax (%)
# unit: % | format: bare number

The cases that follow already have their Dmax on record.
compound	assayTarget	Dmax / %
CCc1cc(Nc2ncc(Br)c(Nc3ccc4nccnc4c3P(C)(C)=O)n2)c(OC)cc1N1CCC(N2CCN(CCCCCc3ccc(C4CCC(=O)NC4=O)cc3)CC2)CC1 (centres unmarked)	EGFR (HCC827 cells) (Homo sapiens, UniProt P00533, DEL746-750)	74.3
COc1cc(N2CCC(N3CCN(CCC4CCN(c5ccc(C6CCC(=O)NC6=O)cc5)CC4)CC3)CC2)ccc1Nc1ncc(Cl)c(Nc2ccccc2N(C)S(C)(=O)=O)n1 (centres unmarked)	EGFR (HCC827 cells) (Homo sapiens, UniProt P00533, DEL746-750)	80.8
COc1cc(N2CCN(C3CN(C(=O)c4cnc(C(=O)Nc5ccc(C6CCC(=O)NC6=O)cc5)cn4)C3)CC2)ccc1Nc1ncc(Cl)c(Nc2ccccc2P(C)(C)=O)n1 (centres unmarked)	EGFR (HCC827 cells) (Homo sapiens, UniProt P00533, DEL746-750)	75.4
CP(C)(=O)c1c(Nc2nc(Nc3ccc(N4CCN(C5CN(CCC6CCN(c7ccc(C8CCC(=O)NC8=O)c(F)c7)CC6)C5)CC4)c(F)c3)ncc2Br)ccc2nccnc12 (centres unmarked)	EGFR (HCC827 cells) (Homo sapiens, UniProt P00533, DEL746-750)	89.9
COc1cc(N2CCC(N3CCN(C(=O)CCCCN4CCN(c5ccc6c(c5)C(=O)N(C5CCC(=O)NC5=O)C6=O)CC4)CC3)CC2)ccc1Nc1ncc(Cl)c(Nc2ccccc2NS(C)(=O)=O)n1 (centres unmarked)	EGFR (HCC827 cells) (Homo sapiens, UniProt P00533, DEL746-750)	82

Which Dmax reading was recorded for the compound CCc1cc(Nc2ncc(Br)c(Nc3ccc4nccnc4c3P(C)(C)=O)n2)c(OC)cc1N1CCC(N2CCN(CC3CN(c4ccc5c(c4)CN(C4CCC(=O)NC4=O)C5=O)C3)CC2)CC1 (centres unmarked) ?
81.7

Which Dmax reading was recorded for the compound `COc1cc(N2CCC(N(C)CC3CCN(c4ccc(N5CCC(=O)NC5=O)c(F)c4)CC3)CC2)c(C)cc1Nc1ncc(Br)c(Nc2ccc3nccnc3c2P(C)(C)=O)n1` ?
68.8

Which Dmax reading was recorded for the compound COc1cc(N2CCC(N(C)CC3CCN(c4ccc(C5CCC(=O)NC5=O)cc4)CC3)CC2)c(C)cc1Nc1ncc(Br)c(Nc2ccc3nccnc3c2P(C)(C)=O)n1 (centres unmarked) ?
70.9

Measured values drawn from patent US20230265116A1 for this set.
